Numbers sourced from ChEMBL document CHEMBL3870359.

assayed target: Coagulation factor VII/tissue factor (Homo sapiens, UniProt P08709)
Sequence (P08709 61-212 limits assumed): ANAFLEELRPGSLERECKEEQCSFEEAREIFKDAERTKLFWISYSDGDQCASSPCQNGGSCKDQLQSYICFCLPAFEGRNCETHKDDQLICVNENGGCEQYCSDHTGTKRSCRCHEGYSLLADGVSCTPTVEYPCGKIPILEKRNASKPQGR
Sequence (P08709 213-466 limits assumed): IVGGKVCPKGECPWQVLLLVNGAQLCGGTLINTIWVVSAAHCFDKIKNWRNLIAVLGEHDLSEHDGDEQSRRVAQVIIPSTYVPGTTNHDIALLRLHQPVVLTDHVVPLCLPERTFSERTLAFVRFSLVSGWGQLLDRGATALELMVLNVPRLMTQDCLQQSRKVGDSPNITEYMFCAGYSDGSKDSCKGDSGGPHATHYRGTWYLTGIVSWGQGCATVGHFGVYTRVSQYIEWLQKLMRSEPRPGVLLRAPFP
Sequence (P13726 33-295 partner limits assumed): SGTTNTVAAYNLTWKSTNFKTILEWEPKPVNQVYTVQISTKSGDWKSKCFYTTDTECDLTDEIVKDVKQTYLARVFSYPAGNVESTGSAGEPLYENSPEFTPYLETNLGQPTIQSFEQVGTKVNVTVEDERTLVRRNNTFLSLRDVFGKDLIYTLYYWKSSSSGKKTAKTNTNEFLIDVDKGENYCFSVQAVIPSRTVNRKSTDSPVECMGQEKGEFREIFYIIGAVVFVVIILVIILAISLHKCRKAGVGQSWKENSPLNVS
experimental protocol: Inhibition of recombinant human factor-7a/TF using S2288 as substrate measured after 60 mins at 25 degC
Assay type: protein-complex assay
Listed below: Ki values for each entry.
Unit nM implied. Number only.

Exercise: What value of Ki has been reported for the following molecule? COc1ccc2cc1[C@H](C)CN(C)C(=O)Nc1ccc(S(=O)(=O)C3CC3)c(c1)CN(C)C(=O)C2Nc1ccc2c(N)nccc2c1 (mixture of isomers)
Solution: 47

Exercise: CN1Cc2cc(ccc2S(=O)(=O)C2CC2)NC(=O)N(Cc2ccccc2)CCc2cccc(c2)[C@@H](Nc2ccc3c(N)ncc(F)c3c2)C1=O ?
Solution: 80

Exercise: Cool, now CN1Cc2cc(ccc2S(=O)(=O)C2CC2)NC(=O)NCCc2cccc(c2)[C@@H](Nc2ccc3c(N)ncc(F)c3c2)C1=O
Solution: 17

Exercise: What do you get for CN1Cc2cc(ccc2S(=O)(=O)C2CC2)NC(=O)OCc2cccc(c2)[C@@H](Nc2ccc3c(N)nccc3c2)C1=O ?
Solution: 260

Exercise: Same question, CN1Cc2cc(ccc2S(=O)(=O)C2CC2)NC(=O)N(CC2CCC2)CCc2cccc(c2)C(Nc2ccc3c(N)ncc(F)c3c2)C1=O (racemic) this time
Solution: 150

Exercise: Check CN1CCc2cccc(c2)[C@@H](Nc2ccc3c(N)ncc(F)c3c2)C(=O)N(C)Cc2cc(ccc2S(=O)(=O)C2CC2)NC1=O too.
Solution: 14

Exercise: Another molecule to look at: CN1Cc2cc(ccc2S(=O)(=O)C2CC2)NC(=O)N(CC2CC2)CCc2cccc(c2)C(Nc2ccc3c(N)ncc(F)c3c2)C1=O (racemic)
Solution: 59

* * *

experimental protocol: Half life in rat liver microsomes
Assay type: ADME
Recorded measurements of half-life, one per entry
Please respond with the number in min and leave the unit unwritten.

Example entries begin here.
C[C@H]1CC(=O)Nc2ccc(S(=O)(=O)C3CC3)c(c2)CN(C)C(=O)[C@H](Nc2ccc3c(N)ncc(F)c3c2)c2ccc(OCC(F)F)c1c2 | 74
C[C@@H]1CC(=O)Nc2ccc(S(=O)(=O)C3CC3)c(c2)CN(C)C(=O)[C@H](Nc2ccc3c(N)ncc(F)c3c2)c2ccc(OCC(F)F)c1c2 | 39
COc1ccc2cc1[C@H](C)CN(C)C(=O)Nc1ccc(S(=O)(=O)C3CC3)c(c1)CN(C)C(=O)C2Nc1ccc2c(N)nccc2c1 (mixture of isomers) | 6
CN1Cc2cc(ccc2S(=O)(=O)C2CC2)NC(=O)N(CC2CC2)CCc2cccc(c2)C(Nc2ccc3c(N)ncc(F)c3c2)C1=O (racemic) | 12
COc1c(F)cc2cc1CCC(=O)Nc1ccc(S(=O)(=O)C3CC3)c(c1)CN(C)C(=O)[C@@H]2Nc1ccc2c(N)ncc(F)c2c1 | 8

Exercise: Bench note: what half-life did CN1Cc2cc(ccc2S(=O)(=O)C2CC2)NC(=O)CCc2cccc(c2)[C@@H](Nc2ccc3c(N)ncc(F)c3c2)C1=O show?
Solution: 33

Exercise: # iterate: COc1ccc2cc1CCC(=O)Nc1ccc(S(=O)(=O)C3CC3)c(c1)CN(C)C(=O)[C@@H]2Nc1ccc2c(N)ncc(F)c2c1
Solution: 16

Exercise: What do you have for COc1ccc2cc1[C@@H](C)CN(C)C(=O)Nc1ccc(S(=O)(=O)C3CC3)c(c1)CN(C)C(=O)[C@@H]2Nc1ccc2c(N)ncc(F)c2c1 ?
Solution: 4

Exercise: Would you kindly repeat that for CN1CCc2cccc(c2)[C@@H](Nc2ccc3c(N)ncc(F)c3c2)C(=O)N(C)Cc2cc(ccc2S(=O)(=O)C2CC2)NC1=O ?
Solution: 6

Exercise: Now the compound CN1Cc2cc(ccc2S(=O)(=O)C2CC2)NC(=O)CCc2cc(ccc2OCC(F)F)[C@@H](Nc2ccc3c(N)ncc(F)c3c2)C1=O
Solution: 64

Exercise: Please do the same for CN1Cc2cc(ccc2S(=O)(=O)C2CC2)NC(=O)CCc2cc(ccc2OCC2CC2)[C@@H](Nc2ccc3c(N)ncc(F)c3c2)C1=O as well.
Solution: 23

Exercise: What do you have for CN1Cc2cc(ccc2S(=O)(=O)C2CC2)NC(=O)CCc2cc(ccc2C2CC2)[C@@H](Nc2ccc3c(N)ncc(F)c3c2)C1=O ?
Solution: 5

Exercise: Follow-up item: COc1cc2cc(c1)[C@@H](Nc1ccc3c(N)ncc(F)c3c1)C(=O)N(C)Cc1cc(ccc1S(=O)(=O)C1CC1)NC(=O)CC2
Solution: 46

* * *

assayed target: Coagulation factor VII/tissue factor (Homo sapiens, UniProt P08709)
experimental protocol: Inhibition of recombinant human factor-7a/TF using S2288 as substrate measured after 60 mins at 37 degC
Type: protein-complex assay
endpoint label: Ki

Exercise: Need Ki, item CN1Cc2cc(ccc2S(=O)(=O)C2CC2)NC(=O)CCc2cc(ccc2C2CC2)[C@@H](Nc2ccc3c(N)ncc(F)c3c2)C1=O
Solution: 77 nM

Exercise: Item: COc1cc2cc(c1)[C@@H](Nc1ccc3c(N)ncc(F)c3c1)C(=O)N(C)Cc1cc(ccc1S(=O)(=O)C1CC1)NC(=O)CC2
Solution: 290 nM

Exercise: What about this compound? CN1Cc2cc(ccc2S(=O)(=O)C2CC2)NC(=O)CCc2cc(ccc2O)[C@@H](Nc2ccc3c(N)ncc(F)c3c2)C1=O
Solution: 92 nM

Exercise: Another: COc1ccc2cc1[C@@H](C)CN(C)C(=O)Nc1ccc(S(=O)(=O)C3CC3)c(c1)CN(C)C(=O)[C@@H]2Nc1ccc2c(N)ncc(F)c2c1
Solution: 3.8 nM

Exercise: Now give it for CN1CCc2cccc(c2)[C@@H](Nc2ccc3c(N)nccc3c2)C(=O)N(C)Cc2cc(ccc2S(=O)(=O)C2CC2)NC1=O too.
Solution: 6.3 nM

Exercise: Now consider CN1Cc2cc(ccc2S(=O)(=O)C2CC2)NC(=O)CCc2cc(ccc2OCC(F)F)[C@@H](Nc2ccc3c(N)ncc(F)c3c2)C1=O and answer again.
Solution: 27 nM

* * *

experimental protocol: Half life in human liver microsomes
Type: ADME
Threshold 20 min: half-life strictly smaller gives TRUE, otherwise FALSE.

C[C@H]1CC(=O)Nc2ccc(S(=O)(=O)C3CC3)c(c2)CN(C)C(=O)[C@H](Nc2ccc3c(N)ncc(F)c3c2)c2ccc(OCC(F)F)c1c2 | TRUE

Exercise: Field: below-cutoff. Rule: recorded half-life strictly less than 20 min. Subject: COc1cc2cc(c1)[C@@H](Nc1ccc3c(N)ncc(F)c3c1)C(=O)N(C)Cc1cc(ccc1S(=O)(=O)C1CC1)NC(=O)CC2
Solution: TRUE

Exercise: How about COc1ccc2cc1[C@@H](C)CN(C)C(=O)Nc1ccc(S(=O)(=O)C3CC3)c(c1)CN(C)C(=O)[C@@H]2Nc1ccc2c(N)ncc(F)c2c1 ?
Solution: TRUE

Exercise: Same lookup for CN1Cc2cc(ccc2S(=O)(=O)C2CC2)NC(=O)CCc2cc(ccc2OCC2CC2)[C@@H](Nc2ccc3c(N)ncc(F)c3c2)C1=O , please.
Solution: FALSE

Exercise: Query CN1CCc2cccc(c2)[C@@H](Nc2ccc3c(N)ncc(F)c3c2)C(=O)N(C)Cc2cc(ccc2S(=O)(=O)C2CC2)NC1=O next
Solution: TRUE

Exercise: Same thing, different compound: CN1Cc2cc(ccc2S(=O)(=O)C2CC2)NC(=O)CCc2cc(ccc2C2CC2)[C@@H](Nc2ccc3c(N)ncc(F)c3c2)C1=O
Solution: FALSE

Exercise: Query COc1c(F)cc2cc1CCC(=O)Nc1ccc(S(=O)(=O)C3CC3)c(c1)CN(C)C(=O)[C@@H]2Nc1ccc2c(N)ncc(F)c2c1 next
Solution: TRUE

Exercise: Another: C[C@@H]1CC(=O)Nc2ccc(S(=O)(=O)C3CC3)c(c2)CN(C)C(=O)[C@H](Nc2ccc3c(N)ncc(F)c3c2)c2ccc(OCC(F)F)c1c2
Solution: FALSE

Exercise: What would you report for CN1Cc2cc(ccc2S(=O)(=O)C2CC2)NC(=O)CCc2cc(ccc2OCC(F)F)[C@@H](Nc2ccc3c(N)ncc(F)c3c2)C1=O ?
Solution: FALSE

* * *

assayed target: UniProt P06870
Sequence (P06870 whole entry): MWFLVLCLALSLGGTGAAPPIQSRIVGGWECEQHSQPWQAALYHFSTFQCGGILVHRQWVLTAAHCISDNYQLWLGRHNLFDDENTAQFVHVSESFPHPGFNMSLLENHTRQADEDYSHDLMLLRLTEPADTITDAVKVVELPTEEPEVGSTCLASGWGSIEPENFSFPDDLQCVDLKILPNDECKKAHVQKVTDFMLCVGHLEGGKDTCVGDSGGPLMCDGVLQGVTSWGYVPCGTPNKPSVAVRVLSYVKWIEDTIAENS
experimental protocol: Inhibition of tissue Kallikrein-1 (unknown origin)
endpoint label: Ki
Please answer using the number first and the unit second.

CN1Cc2cc(ccc2S(=O)(=O)C2CC2)NC(=O)CCc2cc(ccc2OCC(F)F)[C@@H](Nc2ccc3c(N)ncc(F)c3c2)C1=O | 0.14 µM

Continue with the compound presented below.
Exercise: // lookup Ki for C[C@@H]1CC(=O)Nc2ccc(S(=O)(=O)C3CC3)c(c2)CN(C)C(=O)[C@H](Nc2ccc3c(N)ncc(F)c3c2)c2ccc(OCC(F)F)c1c2
Solution: 0.0094 µM

* * *

experimental protocol: Half life in human liver microsomes
Format: ADME
endpoint label: half-life
Remember to follow the number with its unit.

Check out these entries, answers already filled in.
CN1Cc2cc(ccc2S(=O)(=O)C2CC2)NC(=O)N(CC2CC2)CCc2cccc(c2)C(Nc2ccc3c(N)ncc(F)c3c2)C1=O (racemic) | 5 min
COc1ccc2cc1CCC(=O)Nc1ccc(S(=O)(=O)C3CC3)c(c1)CN(C)C(=O)[C@@H]2Nc1ccc2c(N)ncc(F)c2c1 | 14 min
COc1ccc2cc1[C@H](C)CN(C)C(=O)Nc1ccc(S(=O)(=O)C3CC3)c(c1)CN(C)C(=O)C2Nc1ccc2c(N)nccc2c1 (mixture of isomers) | 6 min

Exercise: Entry CN1Cc2cc(ccc2S(=O)(=O)C2CC2)NC(=O)CCc2cccc(c2)[C@@H](Nc2ccc3c(N)ncc(F)c3c2)C1=O has what half-life?
Solution: 13 min
